- System: LKB1
- Construct: gene STK11
- measurementContext: Compound Concentration (nM):1000;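 note: KINOMEscan scanMAX binding as percent activity remaining versus control; lower means stronger binding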
Entries and their Percent Control values follow.
API: value field is a number in %; no unit string.

The cases that follow already have their Percent Control on record.
Please indicate Percent Control recorded for Nc1ncnc2occ(-c3ccc(NC(=O)Nc4cc(C(F)(F)F)ccc4F)cc3)c12 [GW770249X]
83

Please indicate Percent Control recorded for COc1cc2ncn(-c3cc(O[C@H](C)c4ccccc4Cl)c(C(N)=O)s3)c2cc1OC [GSK237701A]
75

Please indicate Percent Control recorded for NS(=O)(=O)c1ccc(N/N=C2\C(=O)Nc3ccc(Cl)cc32)cc1 [GW280670X]
100

Please indicate Percent Control recorded for COc1cc2ncnc(Nc3ccc4c(cnn4Cc4ccccc4)c3)c2cc1OC.Cl [GW282449A]
100

Please indicate Percent Control recorded for COc1cc(C)c(N(C)C(=O)CN(C)C)cc1Nc1nc(Nc2cccc(F)c2C(N)=O)c2cc[nH]c2n1 [GSK2219385]
83

More entries:
Please indicate Percent Control recorded for COc1ccc2cc(-c3c(-c4ccncc4)nc(-c4ccc(S(C)(=O)=O)cc4C)n3C)ccc2c1 [SB-633825]
100

Please indicate Percent Control recorded for COc1cc(/C=N/Nc2ncnc3[nH]ncc23)ccc1O [GW578748X]
100

Please indicate Percent Control recorded for COc1cccc(-c2c[nH]c3c(N/N=C/c4ccncc4)ncnc23)c1 [GW814408X]
88

====

- Test system: CAMK2A
- measurementContext: Compound Concentration (nM):1000
assayReadout: Percent Control (%)
API: value field is a number in %; no unit string.

The cases that follow already have their Percent Control on record.
Please indicate Percent Control recorded for Cl.c1ccc(Cc2nc3ccc(Nc4ncnc5ccccc45)cc3[nH]2)cc1 [GR269666A]
93

Please indicate Percent Control recorded for O=C(Nc1n[nH]c2nc(-c3ccc(O)cc3)c(Br)cc12)C1CC1
93

Please indicate Percent Control recorded for Cl.O=S1CCN(Cc2ccc(-c3ccc4ncnc(Nc5ccc(OCc6ccccc6)c(F)c5)c4c3)o2)CC1 [GW576924A]
100

Please indicate Percent Control recorded for NS(=O)(=O)c1ccc(N/N=C2\C(=O)Nc3ccc(C(=O)NCCc4c[nH]cn4)cc32)cc1 [GW300660X]
100

Please indicate Percent Control recorded for COc1cc(/C=N/Nc2ncnc3[nH]ncc23)ccc1O [GW578748X]
80

Please indicate Percent Control recorded for COc1ccc2[nH]c3c4[nH]c5ccc(OC)cc5c4c4c(c3c2c1)C(=O)NC4=O [GW296115X]
70

Please indicate Percent Control recorded for CN(C)c1cc2c(Nc3ccc4c(cnn4Cc4ccccc4)c3)ncnc2cn1 [GW282974X]
74

Please indicate Percent Control recorded for COc1ccc2c(-c3ccnc(Nc4cccc(OC(F)(F)F)c4)n3)cnn2n1 [GW810372X]
100

Let us examine a further case.
Please indicate Percent Control recorded for Cl.O=C(O[C@H]1CN[C@H](C#Cc2cc3ncnc(Nc4ccc5c(cnn5Cc5ccccc5)c4)c3s2)C1)N1CCOCC1 [GSK200398A]
94

====

- Test system: MAP3K3
- measurementContext: Compound Concentration (nM):1000
Entries and their Percent Control values follow.
API: value field is a number in %; no unit string.

The cases that follow already have their Percent Control on record.
Report Percent Control under test system MAP3K3 for CCn1c(-c2nonc2N)nc2c(C#CC(C)(C)O)nc(OCCNC)cc21.Cl [GSK949675] .
28

Report Percent Control under test system MAP3K3 for COc1cccc(-c2c[nH]c3c(N/N=C/c4ccncc4)ncnc23)c1 [GW814408X] .
57

Report Percent Control under test system MAP3K3 for Cl.O=S1CCN(Cc2ccc(-c3ccc4ncnc(Nc5ccc(OCc6ccccc6)c(F)c5)c4c3)o2)CC1 [GW576924A] .
100

Report Percent Control under test system MAP3K3 for CCS(=O)(=O)c1ccc(OC)c(Nc2ncc(-c3cccc(OC)c3)o2)c1 [GW580509X] .
100

Report Percent Control under test system MAP3K3 for C[C@@H](Oc1cc(-n2cnc3ccc(OC4CCN(C)CC4)cc32)sc1C(N)=O)c1ccccc1Cl [GSK579289A] .
65

Report Percent Control under test system MAP3K3 for COc1cc2ncn(-c3cc(O[C@H](C)c4ccccc4Cl)c(C(N)=O)s3)c2cc1OC [GSK237701A] .
83

Report Percent Control under test system MAP3K3 for CC1=C(C(=O)Nc2ccc3[nH]ncc3c2)C(c2ccc3ccccc3c2)CC(=O)N1 (stereo not drawn) [GSK270822A] .
84

Report Percent Control under test system MAP3K3 for COC(=O)Nc1nc2ccc(Oc3ccc(NC(=O)Nc4cc(C(F)(F)F)ccc4F)cc3)cc2s1.Cl [GW693917A] .
79

More entries:
Report Percent Control under test system MAP3K3 for COc1cc2ncnc(Nc3ccc4c(cnn4Cc4ccccc4)c3)c2cc1OC.Cl [GW282449A] .
100

Report Percent Control under test system MAP3K3 for COc1ccc(COc2ccc(Cc3cnc(N)nc3N)cc2OC)cc1 [GW632580X] .
91

Report Percent Control under test system MAP3K3 for CN1CCN(C(=O)c2ccc(NC(=O)Nc3ccc(N(C)c4ccnc(Nc5ccc(CS(C)(=O)=O)cc5)n4)cc3)cc2)CC1.Cl [GW830263A] .
57

Report Percent Control under test system MAP3K3 for NS(=O)(=O)c1ccc(N/N=C2\C(=O)Nc3ccc(C(=O)NCc4ccncc4)cc32)cc1 [GW300657X] .
72

====

- System: PIK3CD
- measurementContext: Compound Concentration (nM):1000
Label condition met when Percent Control is strictly below 80%; at or above that, label condition not met.

Lab log: compare recorded Percent Control with 80%; is it strictly lower for COc1ccccc1-c1cc(/C=C2\C(=O)Nc3ncc(Br)cc32)cc(Br)c1O [GW442130X] ?
condition met

More entries:
Lab log: compare recorded Percent Control with 80%; is it strictly lower for CN(C)c1cc2c(Nc3ccc4c(cnn4Cc4ccccc4)c3)ncnc2cn1 [GW282974X] ?
condition met

Lab log: compare recorded Percent Control with 80%; is it strictly lower for C/C(Nc1ccc(S(N)(=O)=O)cc1)=C1/C(=O)Nc2ccccc21 [GW335962X] ?
condition not met

Lab log: compare recorded Percent Control with 80%; is it strictly lower for NS(=O)(=O)c1ccc(N/N=C2\C(=O)Nc3ccc(C(=O)NCc4ccncc4)cc32)cc1 [GW300657X] ?
condition met

Lab log: compare recorded Percent Control with 80%; is it strictly lower for Cl.O=C(O[C@H]1CN[C@H](C#Cc2cc3ncnc(Nc4ccc5c(cnn5Cc5ccccc5)c4)c3s2)C1)N1CCOCC1 [GSK200398A] ?
condition not met

Lab log: compare recorded Percent Control with 80%; is it strictly lower for COc1ccc2cc(-c3c(-c4ccncc4)nc(-c4ccc(S(C)(=O)=O)cc4C)n3C)ccc2c1 ?
condition not met

Lab log: compare recorded Percent Control with 80%; is it strictly lower for COc1cc2ncnc(Nc3ccc4c(cnn4Cc4ccccc4)c3)c2cc1OC.Cl [GW282449A] ?
condition not met

====

Entries and their Percent Control values follow.
- Test system: SYK
- measurementContext: Compound Concentration (nM):1000
API: value field is a number in %; no unit string.

Please indicate Percent Control recorded for COc1ccc2cc(-c3c(-c4ccncc4)nc(-c4ccc(S(C)(=O)=O)cc4C)n3C)ccc2c1
78

Please indicate Percent Control recorded for CCS(=O)(=O)c1ccc(OC)c(Nc2ncc(-c3cccc(OC)c3)o2)c1 [GW580509X]
96

Please indicate Percent Control recorded for CN(C)CCNC(=O)Nc1ccc(N(C)c2ccnc(Nc3ccc(CS(C)(=O)=O)cc3)n2)cc1.Cl [GW830900A]
97

Please indicate Percent Control recorded for Nc1ncnc2occ(-c3ccc(NC(=O)Nc4cc(C(F)(F)F)ccc4F)cc3)c12 [GW770249X]
38

Please indicate Percent Control recorded for NS(=O)(=O)c1ccc(Nc2ncc(-c3ccccc3)o2)cc1 [GW572399X]
93

More entries:
Please indicate Percent Control recorded for COc1ccc2[nH]c3c4[nH]c5ccc(OC)cc5c4c4c(c3c2c1)C(=O)NC4=O [GW296115X]
73

Please indicate Percent Control recorded for NS(=O)(=O)c1ccc(N/N=C2\C(=O)Nc3ccc(-c4cnco4)cc32)cc1
100

====

Entries and their Percent Control values follow.
- Test system: CSNK1E
- measurementContext: Compound Concentration (nM):1000
Could you kindly put the unit after your number?

The cases that follow already have their Percent Control on record.
Please indicate Percent Control recorded for NS(=O)(=O)c1ccc(N/N=C2\C(=O)Nc3ccc(-c4cnco4)cc32)cc1 [GW276655]
96%

Please indicate Percent Control recorded for COc1cc(/C=N/Nc2ncnc3[nH]ncc23)ccc1O [GW578748X]
60%

Please indicate Percent Control recorded for COc1cccc(-c2c[nH]c3c(N/N=C/c4ccncc4)ncnc23)c1 [GW814408X]
83%

Please indicate Percent Control recorded for O=C(Nc1n[nH]c2nc(-c3ccc(O)cc3)c(Br)cc12)C1CC1 [SB-725317]
85%

Please indicate Percent Control recorded for COc1ccc(COc2ccc(Cc3cnc(N)nc3N)cc2OC)cc1 [GW632580X]
100%

Let us examine a further case.
Please indicate Percent Control recorded for CC1=C(C(=O)Nc2ccc3[nH]ncc3c2)C(c2ccc3ccccc3c2)CC(=O)N1 (stereo not drawn) [GSK270822A]
100%
